- PROTOCOL TEXT: Ratio of drug uptake in Rattus norvegicus Wistar albino (rat) lung to blood at 74 MBq/umol, iv measured at 30 min
- Format: ADME, organism-based
MEASURE NAME: Kp at 0.5 h
Please respond with just the number, no unit label.

The recorded Kp at 0.5 h for O=C(O[C@@H]1Cc2c(cc(O)c([131I])c2O)O[C@@H]1c1cc(O)c(O)c(O)c1)c1cc(O)c(O)c(O)c1 [[131I]-EPIGALLOCATECHIN GALLATE] is 0.96

###

- PROTOCOL TEXT: Biodistribution in Rattus norvegicus Wistar albino (rat) lung at 74 MBq/umol, iv administered 60 min post dose of non radiolabelled compound measured at 60 min
- Type: ADME, organism-based
- MEASUREMENT PARAMETERS: read-out: Drug uptake
MEASURE NAME: tissue uptake at 1 h (%ID/g)
Could you give me the number in %ID/g? Just the number is fine.

The recorded tissue uptake at 1 h for O=C(O[C@@H]1Cc2c(cc(O)c([131I])c2O)O[C@@H]1c1cc(O)c(O)c(O)c1)c1cc(O)c(O)c(O)c1 [[131I]-EPIGALLOCATECHIN GALLATE] is 0.23
